Consider the following sequences; for each one, report its folding stability dG unfold.
EXPERIMENT: folding stability dG unfold from chymotrypsin proteolysis; higher = more stable
The figure you give is taken to be in kJ/mol; do not add the unit.

## Input Please look at this sequence and report its folding stability dG unfold: SAGGSAGGSAMVVEERRLPDDLLVRTEVEPVEDNELPGPALRVTVTTVDLKTGEETPEVIPESAGGSAGGSA [r18_66_JUSTAS]
## Output 0.702

## Input Please look at this sequence and report its folding stability dG unfold: SADEALRRLLENMTPEELAALLAPAVPGPPVEVLVVPREVLPEVLRRLREEFDVEFEEEGDFVRIVVRGSAG [r14_7_TrMRF]
## Output 12.2

## Input Please look at this sequence and report its folding stability dG unfold: SGLPEELARKLGLSAMTPLPDGTLVMALPDGTRVVVRIETTEVRLSPLGEPAVEVEVEVERLPAPAPEAASA [r9_648_JUSTAS]
## Output 6.98

## Input Please look at this sequence and report its folding stability dG unfold: SMKVYVKVLPPEYAVAYIYTDKKYEIPIPTTDLEEARAQIEEIVNEIEKRTGVKAEVEITEVAPDTKIPLSA [r9_786_JUSTAS]
## Output 3.88

## Input Please look at this sequence and report its folding stability dG unfold: SEGSVRLEFTFTLPDGTRLTVEVTVHYDAATGEFHVSVSVRVEPLPDTSRPWEERPVRLPDGTWVSAADLSA [r9_898_TrMRF]
## Output 9.55

## Input Please look at this sequence and report its folding stability dG unfold: SGFTFSTLIAPDESLSITVKEPNSSTTTSFDFTVDPATGAVSATATTTPPDGKTQTFSVTIPVSPGAAALSA [r9_770_JUSTAS]
## Output 3.87

## Input Please look at this sequence and report its folding stability dG unfold: SAGGDARVARARIRLTRPFPDEDGVVRWEPVVPPGDPVEVGLVLEDDTLVANAVFDGRPVLATVRLESAGGS [r16_500_TrMRF]
## Output -1.7

## Input Please look at this sequence and report its folding stability dG unfold: SAGGSAGGKLKKFKIKEIKIEKNKETNTYTVTITLENGEKLTITAKSKEDAEKALRKLKEAGLLSAGGSAGG [r6_65_TrROS_Hall]
## Output 14.2

## Input Please look at this sequence and report its folding stability dG unfold: SAGGSAMKLTFTDSKGRTIEITVEKKYLPNGEPYLIITIKYPDTDEEIVITMPTSNIDEILEKLLNSAGGSA [r15_92_JUSTAS]
## Output 17.9

## Input Please look at this sequence and report its folding stability dG unfold: TIVIENASVEQIKNAIKEAIKEGKEVKIIIKASPEEKEKIIEELKKLPEIKKVEKLPNGSIKITIKAKELKS [r1_324_TrROS_Hall]
## Output 11.8

## Input Please look at this sequence and report its folding stability dG unfold: SAKPPKVEVKTVRVTIKVRNKDGSTYTITKEVTEVRVEVDGKTVTVTSIKITIELPPGITEVEIKIEKVSAG [r14_892_TrROS_Hall]
## Output 20.2

## Input Please look at this sequence and report its folding stability dG unfold: SAGGSAGGITIRDPDNGIEVKILKITPNHMIIQAEFPNGRNYMIEMPPDSLKPGDEIPMTVHPVSAGGSAGG [r6_152_TrROS]
## Output -0.587

## Input Please look at this sequence and report its folding stability dG unfold: SAGGSAGGSAGGEPIYIRINNYYIVINLDDGNIRVYPPMKGKKKKVPANDIKPIDPGDISAGGSAGGSAGGS [r10_709_TrROS]
## Output 3.4

## Input Please look at this sequence and report its folding stability dG unfold: SAGDGDKMRGEHEREDPNGKKREVTHEMKVQPPPVPKPKIELPADDIDEIDPDNGTLRNPGNGKPFPIGSAG [r5_807_TrROS]
## Output -1.94

## Input Please look at this sequence and report its folding stability dG unfold: SAGGSAGGSAMIVVPVDLVRERLDELVFRGEDGVEYRAEVRVFEVGDRPVAVIDLRPLDEDGSAGGSAGGSA [r18_447_TrMRF]
## Output 4.16

## Input Please look at this sequence and report its folding stability dG unfold: SAGGPPIKKAEIKEIYPEKGIINAIIELEDIPKPYEAIGIITDEKEGIIFVEIINPEGGPPLYFTIKASAGG [r13_337_TrMRF]
## Output 4.55
